system: HLA-A2 MHC-I (HLA-A*0204, affinity purified from the EBV transformed cell line RML) (human)
Listing of entries alongside the reported pKd.
pKd (log units): -log10 of the concentration in mol/L.

binder	pKd
RTLNAWVKV (modifications not checked) [8.54nat]	6.77

q: Let me know recorded pKd for WLFKLVPV (modifications not checked) [8.121mod] , thanks.
a: 6.74

q: Indicate the recorded pKd value for this binder: NIWATHACV (modifications not checked) [8.75natV]
a: 7.24

q: Read off the recorded pKd for NTVATLYCV (modifications not checked) [8.49nat]
a: 6.77
